These measurements were taken from paper PMC10720262.

Molecular target: PfCSP full length (Plasmodium falciparum (isolate NF54), UniProt P19597)
Sequence (P19597 20-375): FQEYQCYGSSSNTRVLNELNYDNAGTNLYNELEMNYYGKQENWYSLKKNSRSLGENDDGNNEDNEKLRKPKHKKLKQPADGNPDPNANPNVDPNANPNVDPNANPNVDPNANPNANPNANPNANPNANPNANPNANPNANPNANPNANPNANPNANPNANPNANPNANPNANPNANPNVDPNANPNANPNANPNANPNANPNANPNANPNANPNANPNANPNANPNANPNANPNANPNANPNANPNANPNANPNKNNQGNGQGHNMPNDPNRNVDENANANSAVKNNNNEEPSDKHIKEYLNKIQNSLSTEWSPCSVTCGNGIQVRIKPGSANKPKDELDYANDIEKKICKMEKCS
Assay: ELISA AUC
OBSERVATION_TYPE: binding score

Task: // binding score lookup, key: CL-460369 (antibody, V domains shown, peptides N-terminally acetylated and C-terminally amidated) VH: QVQLVESGGGVVQPGRSLRLSCAASGFTFSNYGMHWVRQAPGKGLEWVGIIWYDGSNKYYIDSVKGRFTISRDNSRNTLYLQINSLRAEDTAVYYCARDGGWNDDYYYVMDVWGQGTTVTVSS VL: DIVMTQSPDSLAVSLGEGATINCKSSQSVLYSSNNKNYLAWYQQKPGQPPKVLIYWASIRESGVPDRFSGSGSGTDFTLTISSLQAEDVAVYYCQQYYSMCSFGQGTKLEIK
Result: 2.3

In the following, a different binder is considered.
Task: Would you kindly share the measured binding score for CL-509025 (antibody, V domains shown, peptides N-terminally acetylated and C-terminally amidated) VH: QVQLVESGGGVVQPGRSLRLSCVASGFTFSDYGMHWVRQAPGKGLEWVAVIWYDGTKEFFADSVKGRFTISRDNSKDTLYLQMNSLRAEDTGIYYCATYKWNSHLDYWGQGTLVTVSS VL: EIVLTQSPATLSLSPGERATLSCRASQTISSYLAWYQQKPGQAPRLLIYDASNRATGIPARFSGSGSGTDFTLTISSLEPEDFTVYYCQQRSNWPLTFGGGTKVGIK ?
Result: 1.64
